assayTarget: PI3Kγ (p110γ) Recombinant Human Protein (Homo sapiens (Human), UniProt P48736)
Sequence (P48736 whole entry): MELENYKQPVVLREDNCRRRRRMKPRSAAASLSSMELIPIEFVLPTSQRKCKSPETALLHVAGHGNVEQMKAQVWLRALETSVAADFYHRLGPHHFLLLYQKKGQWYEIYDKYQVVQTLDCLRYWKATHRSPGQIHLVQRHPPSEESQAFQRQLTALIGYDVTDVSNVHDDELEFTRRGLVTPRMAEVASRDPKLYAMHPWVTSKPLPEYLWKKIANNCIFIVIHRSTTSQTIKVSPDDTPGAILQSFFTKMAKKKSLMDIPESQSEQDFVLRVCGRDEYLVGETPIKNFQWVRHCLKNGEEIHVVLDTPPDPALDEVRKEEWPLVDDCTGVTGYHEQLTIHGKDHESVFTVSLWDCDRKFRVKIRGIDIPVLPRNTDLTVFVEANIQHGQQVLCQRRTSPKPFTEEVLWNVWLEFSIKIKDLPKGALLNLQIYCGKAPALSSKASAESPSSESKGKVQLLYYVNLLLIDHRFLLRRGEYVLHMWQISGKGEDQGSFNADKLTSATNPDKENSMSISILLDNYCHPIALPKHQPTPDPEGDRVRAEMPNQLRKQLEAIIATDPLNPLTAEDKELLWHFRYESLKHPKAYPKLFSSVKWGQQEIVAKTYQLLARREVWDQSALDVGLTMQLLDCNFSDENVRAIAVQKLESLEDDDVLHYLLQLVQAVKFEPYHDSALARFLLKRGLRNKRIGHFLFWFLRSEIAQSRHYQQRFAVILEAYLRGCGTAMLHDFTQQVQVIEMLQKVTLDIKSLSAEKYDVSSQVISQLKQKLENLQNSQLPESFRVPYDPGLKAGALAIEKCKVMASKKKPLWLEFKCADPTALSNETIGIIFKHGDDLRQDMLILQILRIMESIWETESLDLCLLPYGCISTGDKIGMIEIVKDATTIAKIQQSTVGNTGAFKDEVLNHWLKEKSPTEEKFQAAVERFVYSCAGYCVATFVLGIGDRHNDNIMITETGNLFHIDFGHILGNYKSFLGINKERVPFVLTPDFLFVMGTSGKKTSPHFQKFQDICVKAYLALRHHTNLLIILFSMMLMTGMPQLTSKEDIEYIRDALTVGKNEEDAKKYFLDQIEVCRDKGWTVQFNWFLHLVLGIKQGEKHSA
methodDescription: PI3K-γ Scintillation Proximity Assay
runParameters: read-out: PI3K-gamma SPA IC50
pIC50: −log10 of the molar value. Where a name gives a salt, the structure may show the parent alone.
Recorded pIC50 values for a group of molecules are listed next.

[[record]]
molecule = "COC(=O)N1CC=C(c2cncc(-c3ccnc(-c4nc(C)c(C)[nH]4)c3)c2)C1"
reportedproperty = "pIC50"
assayvalue = "≥ 6.30"

[[record]]
molecule = "Cc1[nH]c(-c2cc(-c3cncc(N4CCOCC4)c3)ccn2)nc1CCO"
reportedproperty = "pIC50"
assayvalue = "≥ 7.30"


Enquiry: Under PI3Kγ (p110γ) Recombinant Human Protein (Homo sapiens (Human), UniProt P48736): pIC50 value of Cc1[nH]c(-c2cc(-c3cncc(N4CCOCC4)c3)ccn2)nc1Nc1ccnnc1 [Example 308, trifluoroacetate salt] ?
Return: ≥ 6.30

Enquiry: Under PI3Kγ (p110γ) Recombinant Human Protein (Homo sapiens (Human), UniProt P48736): pIC50 value of Cc1[nH]c(-c2cc(-c3cncc(S(C)(=O)=O)c3)ccn2)nc1C(=O)N[C@H]1CCOC1 [Example 255, trifluoroacetate salt] ?
Return: ≥ 7.30

Enquiry: Under PI3Kγ (p110γ) Recombinant Human Protein (Homo sapiens (Human), UniProt P48736): pIC50 value of CC(C)c1cnc(-c2cc(-c3cncc(N4CCOCC4)c3)ccn2)[nH]1 [Example 101, trifluoroacetate salt] ?
Return: ≥ 6.30

Enquiry: Under PI3Kγ (p110γ) Recombinant Human Protein (Homo sapiens (Human), UniProt P48736): pIC50 value of Cc1c[nH]c(-c2cc(-c3cncc(S(=O)(=O)N[C@H]4CC[C@H](O)CC4)c3)ccn2)n1 [Example 299, trifluoroacetate salt] ?
Return: ≥ 7.30

Enquiry: Under PI3Kγ (p110γ) Recombinant Human Protein (Homo sapiens (Human), UniProt P48736): pIC50 value of Cc1[nH]c(-c2cc(-c3cncc(S(C)(=O)=O)c3)ccn2)nc1C(=O)NC(C)C [Example 253, trifluoroacetate salt] ?
Return: ≥ 7.30

Enquiry: Under PI3Kγ (p110γ) Recombinant Human Protein (Homo sapiens (Human), UniProt P48736): pIC50 value of Cc1nc(-c2cc(-c3cncc(C(=O)NCC4CCCO4)c3)ccn2)[nH]c1C (racemic) [Example 167, trifluoroacetate salt] ?
Return: ≥ 7.00

Enquiry: Under PI3Kγ (p110γ) Recombinant Human Protein (Homo sapiens (Human), UniProt P48736): pIC50 value of Cc1nc(-c2cc(-c3cncc(C(=O)N(C)CCCO)c3)ccn2)[nH]c1C ?
Return: ≥ 7.00

Enquiry: Under PI3Kγ (p110γ) Recombinant Human Protein (Homo sapiens (Human), UniProt P48736): pIC50 value of COC[C@@H](NC(=O)c1nc(-c2cc(-c3cncc(N4CCOCC4)c3)ccn2)[nH]c1C)c1ccccc1 [Example 276, trifluoroacetate salt] ?
Return: ≥ 7.00

Enquiry: Under PI3Kγ (p110γ) Recombinant Human Protein (Homo sapiens (Human), UniProt P48736): pIC50 value of Cc1cnc(-c2cc(-c3cncc(S(=O)(=O)N[C@H]4CC[C@](C)(O)CC4)c3)ccn2)[nH]1 [Example 298, Trifluoroacetate Salt] ?
Return: ≥ 7.30

Enquiry: Under PI3Kγ (p110γ) Recombinant Human Protein (Homo sapiens (Human), UniProt P48736): pIC50 value of Cc1[nH]c(-c2cc(-c3cncc(S(C)(=O)=O)c3)ccn2)nc1C(=O)N1CCOCC1 ?
Return: ≥ 7.00

Enquiry: Under PI3Kγ (p110γ) Recombinant Human Protein (Homo sapiens (Human), UniProt P48736): pIC50 value of c1ccc(Cn2cc(-c3ccnc(-c4ncc(-c5ccccc5)[nH]4)c3)cn2)cc1 [Example 5, trifluoroacetate salt] ?
Return: ≥ 7.00

Enquiry: Under PI3Kγ (p110γ) Recombinant Human Protein (Homo sapiens (Human), UniProt P48736): pIC50 value of Cc1nc(-c2cc(-c3cncc(C(=O)N4CCC(O)CC4)c3)ccn2)[nH]c1C ?
Return: ≥ 7.00

Enquiry: Under PI3Kγ (p110γ) Recombinant Human Protein (Homo sapiens (Human), UniProt P48736): pIC50 value of N#Cc1ccccc1Cn1cc(-c2ccnc(-c3ncc(-c4ccccc4)[nH]3)c2)cn1 [Example 6, trifluoroacetate salt] ?
Return: ≥ 7.00

Enquiry: Under PI3Kγ (p110γ) Recombinant Human Protein (Homo sapiens (Human), UniProt P48736): pIC50 value of CS(=O)(=O)c1cncc(-c2ccnc(-c3ncc(C4CCCCC4)[nH]3)c2)c1 [Example 106, Trifluoroacetate Salt] ?
Return: ≥ 7.30

Enquiry: Under PI3Kγ (p110γ) Recombinant Human Protein (Homo sapiens (Human), UniProt P48736): pIC50 value of CS(=O)(=O)c1cncc(-c2ccnc(-c3ncc(C4CCCC4)[nH]3)c2)c1 [Example 114, trifluoroacetate salt] ?
Return: ≥ 7.30

* * *

Recorded pIC50 values for a group of compounds are listed next.
assayTarget: PI3Kδ (p110δ/p85α) Recombinant Human Protein (Homo sapiens (Human), UniProt O00329)
Sequence (O00329 whole entry): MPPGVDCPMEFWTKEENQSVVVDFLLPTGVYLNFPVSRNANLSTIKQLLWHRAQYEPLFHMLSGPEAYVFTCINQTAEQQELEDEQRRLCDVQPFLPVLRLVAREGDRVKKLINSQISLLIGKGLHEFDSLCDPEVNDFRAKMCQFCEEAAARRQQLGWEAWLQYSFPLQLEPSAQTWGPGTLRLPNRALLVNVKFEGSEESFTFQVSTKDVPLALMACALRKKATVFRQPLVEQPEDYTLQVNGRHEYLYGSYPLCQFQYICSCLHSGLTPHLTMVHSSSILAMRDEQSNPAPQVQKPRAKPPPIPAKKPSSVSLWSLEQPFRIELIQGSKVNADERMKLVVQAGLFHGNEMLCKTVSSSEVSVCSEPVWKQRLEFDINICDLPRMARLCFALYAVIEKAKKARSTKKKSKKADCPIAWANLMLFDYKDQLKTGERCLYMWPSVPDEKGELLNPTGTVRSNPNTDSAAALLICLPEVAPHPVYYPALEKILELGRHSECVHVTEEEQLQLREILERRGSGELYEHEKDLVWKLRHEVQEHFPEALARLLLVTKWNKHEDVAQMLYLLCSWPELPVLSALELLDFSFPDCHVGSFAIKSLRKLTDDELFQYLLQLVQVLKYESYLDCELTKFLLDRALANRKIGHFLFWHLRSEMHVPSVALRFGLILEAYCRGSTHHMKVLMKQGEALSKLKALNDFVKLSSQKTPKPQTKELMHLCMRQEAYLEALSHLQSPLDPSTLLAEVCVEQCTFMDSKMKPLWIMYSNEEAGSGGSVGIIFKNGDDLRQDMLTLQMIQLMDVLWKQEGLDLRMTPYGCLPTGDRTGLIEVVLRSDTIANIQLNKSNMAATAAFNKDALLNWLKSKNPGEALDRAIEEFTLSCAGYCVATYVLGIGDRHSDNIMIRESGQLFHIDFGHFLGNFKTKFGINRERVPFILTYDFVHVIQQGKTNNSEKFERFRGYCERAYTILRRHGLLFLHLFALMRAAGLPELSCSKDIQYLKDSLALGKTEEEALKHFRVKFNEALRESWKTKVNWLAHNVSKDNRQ
Sequence (P27986 whole entry partner): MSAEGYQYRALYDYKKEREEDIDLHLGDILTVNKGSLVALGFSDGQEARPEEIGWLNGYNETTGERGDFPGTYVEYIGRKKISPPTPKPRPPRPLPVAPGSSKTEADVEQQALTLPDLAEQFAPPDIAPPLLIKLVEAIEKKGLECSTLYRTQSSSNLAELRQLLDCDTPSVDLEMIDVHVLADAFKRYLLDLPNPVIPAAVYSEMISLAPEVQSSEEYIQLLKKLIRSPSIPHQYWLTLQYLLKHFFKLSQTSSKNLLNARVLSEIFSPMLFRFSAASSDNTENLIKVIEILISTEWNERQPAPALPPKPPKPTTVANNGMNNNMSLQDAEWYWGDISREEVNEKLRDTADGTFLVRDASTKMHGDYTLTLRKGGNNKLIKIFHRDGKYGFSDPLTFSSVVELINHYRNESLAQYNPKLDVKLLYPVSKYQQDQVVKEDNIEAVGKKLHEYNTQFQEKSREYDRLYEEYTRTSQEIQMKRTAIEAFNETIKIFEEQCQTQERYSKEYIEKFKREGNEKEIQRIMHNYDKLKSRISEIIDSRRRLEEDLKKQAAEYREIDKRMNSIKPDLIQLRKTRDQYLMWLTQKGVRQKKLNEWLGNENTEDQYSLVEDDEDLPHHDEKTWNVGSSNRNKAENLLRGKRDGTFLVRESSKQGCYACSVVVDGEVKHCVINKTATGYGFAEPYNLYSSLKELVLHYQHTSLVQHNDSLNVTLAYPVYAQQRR
methodDescription: PI3Kδ Scintillation Proximity Assay
runParameters: read-out: PI3K-delta SPA IC50
pIC50: −log10 of the molar value. Counter-ions that a name gives are not always drawn.

[[record]]
compound = "CN(C)C(=O)Cn1cc(-c2ccnc(-c3ncc(-c4ccccc4)[nH]3)c2)cn1 [Example 49, trifluoroacetate salt]"
reportedproperty = "pIC50"
assayvalue = "< 6.30"

[[record]]
compound = "CS(=O)(=O)c1cncc(-c2ccnc(-c3ncc(-c4ccccc4)[nH]3)c2)c1 [Example 40, trifluoroacetate salt]"
reportedproperty = "pIC50"
assayvalue = "≥ 7.30"

[[record]]
compound = "Cc1[nH]c(-c2cc(-c3cncc(N4CCOCC4)c3)ccn2)nc1C(C)O (racemic)"
reportedproperty = "pIC50"
assayvalue = "≥ 6.30"

[[record]]
compound = "Cc1nc(-c2cc(-c3cncc(NCC4CCOC4)c3)ccn2)[nH]c1C (racemic) [Example 145B]"
reportedproperty = "pIC50"
assayvalue = "≥ 7.30"

[[record]]
compound = "Cc1[nH]c(-c2cc(-c3cncc(S(C)(=O)=O)c3)ccn2)nc1C(=O)N[C@@H]1CCOC1 [Example 256, trifluoroacetate salt]"
reportedproperty = "pIC50"
assayvalue = "≥ 7.30"


Enquiry: Endpoint output: pIC50 of Cc1nc(-c2cc(-c3cncc(C4=CCN(S(C)(=O)=O)C4)c3)ccn2)[nH]c1C . Value?
Return: ≥ 7.30

Enquiry: Endpoint output: pIC50 of O=C(Nc1cncc(-c2ccnc(-c3ncc(-c4ccccc4)[nH]3)c2)c1)c1ccccc1Cl . Value?
Return: ≥ 7.00

* * *

assayTarget: PI3Kδ (p110δ/p85α) Recombinant Human Protein (Homo sapiens (Human), UniProt O00329)
methodDescription: PI3Kδ Scintillation Proximity Assay
runParameters: read-out: PI3K-delta SPA IC50
Description: Example C. PI3Kδ Scintillation Proximity Assay [γ-^33P]ATP (10 mCi/mL) and Wheat Germ Agglutinin (WGA) YSi SPA Scintillation Beads was purchased from Perkin-Elmer (Waltham, Mass.). Lipid kinase substrate, D-myo-Phosphatidylinositol 4,5-bisphosphate (PtdIns(4,5)P2)D (+)-sn-1,2-di-O-octanoylglyceryl, 3-O-phospho linked (PIP2), CAS 204858-53-7, was purchased from Echelon Biosciences (Salt Lake City, Utah). PI3Kδ (p110δ/p85α) Recombinant Human Protein was purchased from Eurofins (St Charles, Mo.). […]
pIC50: −log10 of the molar value. Where a name gives a salt, the structure may show the parent alone.
reportedProperty: pIC50

[[record]]
molecule = "Cc1nc(-c2cc(-c3cncc(C(=O)N4CCC5(CC5)C4)c3)ccn2)[nH]c1C [Example 212, trifluoroacetate salt]"
reportedproperty = "pIC50"
assayvalue = "≥ 7.30"

[[record]]
molecule = "CC(=O)N1CCC(c2c[nH]c(-c3cc(-c4cnn(Cc5ccc(Cl)cc5)c4)ccn3)n2)C1 (stereo not shown) [Example 303, trifluoroacetate salt]"
reportedproperty = "pIC50"
assayvalue = "< 6.30"

[[record]]
molecule = "FC(F)(F)c1cnc(-c2cc(-c3cncc(N4CCOCC4)c3)ccn2)[nH]1 [Example 99, trifluoroacetate salt]"
reportedproperty = "pIC50"
assayvalue = "≥ 6.30"


Please examine the following record next.
Enquiry: Endpoint output: pIC50 of CCCCNc1nnc(-c2cc(-c3cncc(OC)c3)ccn2)[nH]1 [Example 66, Trifluoroacetate Salt] . Value?
Return: < 6.30

* * *

assayTarget: PI3Kγ (p110γ) Recombinant Human Protein (Homo sapiens (Human), UniProt P48736)
methodDescription: PI3K-γ Scintillation Proximity Assay
runParameters: read-out: PI3K-gamma SPA IC50
Counter-ions that a name gives are not always drawn.
Recorded IC50 values for a group of molecules are listed next.

[[record]]
molecule = "COCCCNCc1nc(-c2cc(-c3cncc(N4CCOCC4)c3)ccn2)[nH]c1C"
reportedproperty = "IC50"
assayvalue = "> 500 nM"

[[record]]
molecule = "CCS(=O)(=O)Nc1cncc(-c2ccnc(-c3ncc(-c4ccccc4)[nH]3)c2)c1 [Example 130, Trifluoroacetate Salt]"
reportedproperty = "IC50"
assayvalue = "≤ 50 nM"

[[record]]
molecule = "CN1CCC(CNc2cncc(-c3ccnc(-c4ncc(-c5ccccc5)[nH]4)c3)c2)CC1 [Example 144, trifluoroacetate salt]"
reportedproperty = "IC50"
assayvalue = "≤ 100 nM"


Enquiry: Endpoint output: IC50 of N#CCn1cc(-c2ccnc(-c3ncc(-c4ccccc4)[nH]3)c2)cn1 [Example 56, trifluoroacetate salt] . Value?
Return: ≤ 100 nM
